The entries below are paired with their reported IC50.
System: 293T-HRE-GFP-luc cells
Experiment: Cell-based reporter assay for IC50 determinations (HRE-luciferase, hypoxia)
Conditions: 6 h, 6 hrs hypoxia (1% O2), luminescence

>>> measured_value("CN1CCN(c2cc(Cn3nc(-c4nc(-c5ccc(OC(F)(F)F)cc5)no4)ccc3=O)ccn2)CC1 [Example 2]")
"< 100 nM"
>>> measured_value("CC(C)Oc1ccc(-c2nnc(-c3ccc(=O)n(Cc4cccc(N5CCC(S(C)(=O)=O)CC5)c4)n3)o2)cc1 [Example 106]")
"< 100 nM"
>>> measured_value("COCCOc1cccc(Cn2cc(-c3noc(-c4ccc(C(C)(C)C#N)cc4)n3)ccc2=O)c1 [Example 68]")
"100 to 1000 nM"

Here is another compound to look at.
If you can, please state the reported IC50 value of CN1CCN(C(=O)c2cccc(Cn3cc(-c4nc(-c5ccc(OC(F)(F)F)cc5)no4)ccc3=O)c2)CC1 [Example 115] .
< 100 nM
